- Test system: EKVX
- assay-procedure: Growth inhibition of human EKVX cells at 10 uM incubated for 48 hrs by sulforhodamine B assay relative to control
- Format: functional
- test-conditions: read-out: GI
Reported values of inhibition of growth at 10 µM for individual entries

- compound: "COc1ccc(-c2nnc(CSC3=NC(c4ccc(F)cc4)C(C(C)=O)=C(C)N3)o2)cc1 (stereo unspecified)"
  inhibition of growth at 10 µM: "< 10%"
- compound: "CCOC(=O)C1=C(C)NC(SCc2nnc(-c3ccc(OC)cc3)o2)=NC1c1ccc(F)cc1 (stereo unspecified)"
  inhibition of growth at 10 µM: "< 10%"
- compound: "CC(=O)C1=C(C)NC(SCc2nnc(-c3ccc(Cl)cc3)o2)=NC1c1ccc(Cl)cc1 (stereo unspecified)"
  inhibition of growth at 10 µM: "< 10%"
- compound: "CC(=O)C1=C(C)NC(SCc2nnc(-c3ccc(C)cc3)o2)=NC1c1ccc(F)cc1 (stereo unspecified)"
  inhibition of growth at 10 µM: "< 10%"
- compound: "CCOC(=O)C1=C(C)NC(SCc2nnc(-c3ccc(Cl)cc3)o2)=NC1c1ccc(Br)cc1 (stereo unspecified)"
  inhibition of growth at 10 µM: "28.7%"
- compound: "CCOC(=O)C1=C(C)NC(SCc2nnc(-c3ccc(Cl)cc3)o2)=NC1c1ccc(Cl)cc1 (stereo unspecified)"
  inhibition of growth at 10 µM: "19.9%"

====

- Test system: MDA-MB-231
- assay-procedure: Growth inhibition of human MDA-MB-231 cells at 10 uM incubated for 48 hrs by sulforhodamine B assay relative to control
- Assay type: functional
- test-conditions: MDA-MB-231, 48 h, read-out: GI
inhibition of growth at 10 µM values for the compounds below.
metric: inhibition of growth at 10 µM

- compound: "CC(=O)C1=C(C)NC(SCc2nnc(-c3ccc(C)cc3)o2)=NC1c1ccc(F)cc1 (stereo not drawn)"
  recorded-measurement: "< 10%"
- compound: "CCOC(=O)C1=C(C)NC(SCc2nnc(-c3ccc(Cl)cc3)o2)=NC1c1ccccc1 (stereo not drawn)"
  recorded-measurement: "< 10%"
- compound: "CCOC(=O)C1=C(C)NC(SCc2nnc(-c3ccc(Cl)cc3)o2)=NC1c1ccc(F)cc1 (stereo not drawn)"
  recorded-measurement: "< 10%"

====

- Test system: KM12
- assay-procedure: Growth inhibition of human KM12 cells at 10 uM incubated for 48 hrs by sulforhodamine B assay relative to control
- Assay type: functional
- test-conditions: KM12, 48 h, read-out: GI

- compound: "CC(=O)C1=C(C)NC(SCc2nnc(-c3ccc(Cl)cc3)o2)=NC1c1ccc(Cl)cc1 (stereo not drawn)"
  inhibition of growth at 10 µM: "< 10%"
- compound: "CCOC(=O)C1=C(C)NC(SCc2nnc(-c3ccc(C)cc3)o2)=NC1c1ccc(F)cc1 (stereo not drawn)"
  inhibition of growth at 10 µM: "< 10%"
- compound: "CC(=O)C1=C(C)NC(SCc2nnc(-c3ccc(C)cc3)o2)=NC1c1ccc(F)cc1 (stereo not drawn)"
  inhibition of growth at 10 µM: "< 10%"

====

- System: OVCAR-5
- assay-procedure: Growth inhibition of human OVCAR5 cells at 10 uM incubated for 48 hrs by sulforhodamine B assay relative to control
- Assay type: functional
- test-conditions: OVCAR-5, 48 h, read-out: GI

- molecule: "CCOC(=O)C1=C(C)NC(SCc2nnc(-c3ccc(OC)cc3)o2)=NC1c1ccc(F)cc1 (stereo not drawn)"
  inhibition of growth at 10 µM: "< 10%"
- molecule: "CCOC(=O)C1=C(C)NC(SCc2nnc(-c3ccc(Cl)cc3)o2)=NC1c1ccc(Cl)cc1Cl (stereo not drawn)"
  inhibition of growth at 10 µM: "11%"
- molecule: "COc1ccc(-c2nnc(CSC3=NC(c4ccc(F)cc4)C(C(C)=O)=C(C)N3)o2)cc1 (stereo not drawn)"
  inhibition of growth at 10 µM: "< 10%"

====

- Test system: MCF7
- assay-procedure: Growth inhibition of human MCF7 cells at 10 uM incubated for 48 hrs by sulforhodamine B assay relative to control
- Format: functional
- test-conditions: MCF7, 48 h, read-out: GI
Known inhibition of growth at 10 µM of a selection of compounds
metric: inhibition of growth at 10 µM

- compound: "CC(=O)C1=C(C)NC(SCc2nnc(-c3ccc(C)cc3)o2)=NC1c1ccc(F)cc1 (stereo not drawn)"
  recorded-measurement: "< 10%"
- compound: "CCOC(=O)C1=C(C)NC(SCc2nnc(-c3ccc(Cl)cc3)o2)=NC1c1ccc(OC)cc1 (stereo not drawn)"
  recorded-measurement: "< 10%"
- compound: "CCOC(=O)C1=C(C)NC(SCc2nnc(-c3ccc(OC)cc3)o2)=NC1c1ccc(F)cc1 (stereo not drawn)"
  recorded-measurement: "< 10%"
